From: patent US20100099561A1

Entries and their Plant response rating, Corn values follow.
tested on: corn (Zea mays); assay: Test B preemergence, corn; format: in vivo; settings: 62 g ai/ha, scale 0 to 100
# answer = number (no unit)

For orientation, consider the following solved cases.
Item smiles	Plant response rating, Corn
CC1(C)CC(S(=O)(=O)Cc2c(C(F)(F)F)nc3ccsn3c2=O)=NO1	0
CC1(C)CC(S(=O)(=O)Cc2c(C(F)(F)F)nc3n(c2=O)CCO3)=NO1	20
CC1(C)CC(S(=O)(=O)Cc2c(C(F)(F)F)nc3n(c2=O)CCC3)=NO1	0
CC1(C)CC(S(=O)(=O)Cc2c(C(F)(F)Cl)nc3n(c2=O)CCC3)=NO1	0
CC1(C)CC(S(=O)(=O)Cc2c(C(F)(F)F)nc3n(c2=O)CCCC3)=NO1	45
CC1(C)CC(S(=O)(=O)Cc2c(C(F)(F)C(F)(F)F)nc3n(c2=O)CCC3)=NO1	0
CC1(C)CC(S(=O)(=O)Cc2c(C(F)(F)F)nc3n(c2=O)CCS3)=NO1	0

Next compound, please.
Form field: Plant response rating, Corn recorded for CC1(C)CC(S(=O)(=O)Cc2c(C(F)(F)C(F)(F)F)nc3n(c2=O)CCCC3)=NO1 with corn (Zea mays) (enter value)
0

---

Entries and their Plant response rating, Wheat values follow.
tested on: wheat (Triticum aestivum); experiment: Test A preemergence, wheat; format: in vivo; conditions: 125 g ai/ha, 0 to 100 scale (0 no effect, 100 complete control)

Fill blank: measured Plant response rating, Wheat of the molecule CC1(C)CC(S(=O)(=O)Cc2c(C(F)(F)C(F)(F)F)nc3n(c2=O)CCCO3)=NO1 is ____.
0

Queued: CC1(C)CC([S+]([O-])Cc2c(C(F)(F)F)nc3n(c2=O)CCCCC3)=NO1 (centres unmarked)
0

Queued: CC1(C)CC([S+]([O-])Cc2c(C(F)(F)C(F)(F)F)nc3n(c2=O)CCS3)=NO1 (centres unmarked)
0

Queued: CC1(C)CC(S(=O)(=O)Cc2c(C(F)(F)F)nc3n(c2=O)CCCO3)=NO1
0

Queued: CC1(C)CC([S+]([O-])Cc2c(C(F)(F)F)nc3n(c2=O)CCC3)=NO1 (centres unmarked)
0

Queued: CC1(C)CC([S+]([O-])Cc2c(C(F)(F)Cl)nc3n(c2=O)CCC3)=NO1 (centres unmarked)
0

Queued: CC1(C)CC(S(=O)(=O)Cc2c(C(F)(F)F)nc3n(c2=O)CCO3)=NO1
10

Queued: CC1(C)CC([S+]([O-])Cc2c(C(F)(F)Cl)nc3n(c2=O)CCCC3)=NO1 (centres unmarked)
0

Queued: Cn1c(=O)c(C[S+]([O-])C2=NOC(C)(C)C2)nc2ccccc21 (centres unmarked)
0

Queued: CCn1c(=O)c(CS(=O)(=O)C2=NOC(C)(C)C2)nc2ccccc21
0

Queued: CC1(C)CC(S(=O)(=O)Cc2c(C(F)(F)F)nc3n(c2=O)CCCC3)=NO1
0

Queued: Cn1c(=O)c(CS(=O)(=O)C2=NOC(C)(C)C2)c(C(F)(F)F)c2ccccc21
0

Queued: Cc1con2c(=O)c(C[S+]([O-])C3=NOC(C)(C)C3)c(C(F)(F)F)nc12 (centres unmarked)
0

Queued: CC1(C)CC(S(=O)(=O)Cc2c(C(F)(F)Cl)nc3n(c2=O)CCC3)=NO1
0

Queued: CC1(C)CC([S+]([O-])Cc2c(C(F)(F)Cl)nc3n(c2=O)CCCS3)=NO1 (centres unmarked)
0

Queued: Cc1cc2nc(C(F)(F)F)c(C[S+]([O-])C3=NOC(C)(C)C3)c(=O)n2o1 (centres unmarked)
0

Queued: CC1(C)CC([S+]([O-])Cc2c(C(F)(F)F)nc3cnccn3c2=O)=NO1 (centres unmarked)
0
